Test system: BDF1 mice, L1210 leukemia sc, survival T/C
experiment.description: NCI In Vivo Anticancer Drug Screen. Data for tumor model L1210 Leukemia (subcutaneous) in B6D2F1 (BDF1) mice
recorded.conditions: endpoint: median survival time; dose: 23.0 mg/kg/injection; schedule: Q01DX Z (sc); vehicle: carboxymethylcellulose (CMC)
Toxic doses and inconclusive results are not listed. How the source made its calls: active means survival T/C of 150% or more; inactive means T/C below 125% in these data.
Outcomes: active, inactive

| molecule | target.desc | group.label |
| --- | --- | --- |
| CCOC1=C(N2CC2)C(=O)C(OCC)=C(N2CC2)C1=O | BDF1 mice, L1210 leukemia sc, survival T/C | inactive |
| Cc1cccc(C)c1NC(=O)N(CCCl)N=O | BDF1 mice, L1210 leukemia sc, survival T/C | active |
| CN(C)CCNc1ccc([N+](=O)[O-])c2sc3ccccc3c(=O)c12 | BDF1 mice, L1210 leukemia sc, survival T/C | inactive |
| CCC(=O)OCC1OC(n2cnc3c(=S)nc(N)[nH]c32)C(OC(=O)CC)C1OC(=O)CC (centres undefined) | BDF1 mice, L1210 leukemia sc, survival T/C | inactive |
| CCCC(=O)OCC1OC(n2cnc3c(=S)nc(N)[nH]c32)C(OC(=O)CCC)C1OC(=O)CCC (centres undefined) | BDF1 mice, L1210 leukemia sc, survival T/C | inactive |
| O=NN(CCF)C(=O)NC12CC3CC(CC(C3)C1)C2 | BDF1 mice, L1210 leukemia sc, survival T/C | inactive |
| O=NN(CCF)C(=O)NC1CCCCC1 | BDF1 mice, L1210 leukemia sc, survival T/C | active |
| CN(C)N=Nc1ccc(CCCC(=O)NN)cc1 | BDF1 mice, L1210 leukemia sc, survival T/C | inactive |
| O=NN(CCCl)C(=O)NC1CC2CCC1C2 (centres undefined) | BDF1 mice, L1210 leukemia sc, survival T/C | active |

====

System: BDF1 mice, L1210 leukemia sc, survival T/C
experiment.description: NCI In Vivo Anticancer Drug Screen. Data for tumor model L1210 Leukemia (subcutaneous) in B6D2F1 (BDF1) mice
recorded.conditions: endpoint: median survival time; dose: 8.4 mg/kg/injection; schedule: Q01DX Z (sc); vehicle: saline
Toxic doses and inconclusive results are not listed. How the source made its calls: active means survival T/C of 150% or more; inactive means T/C below 125% in these data.
Outcomes: Y = active, N = inactive

| compound | group.label |
| --- | --- |
| COC(=O)[C@@H]1c2cc3c(c(O)c2[C@@H](OC2OC(C)C(OC)C(C)(OC)C2OC)C[C@]1(C)O)C(=O)c1c(O)cc2c(c1C3=O)O[C@H]1O[C@]2(C)[C@H](O)[C@@H](N(C)C)[C@@H]1O (some centres not stated) | N |
| S=P(N1CCCCCC1)(N1CC1)N1CC1 | N |
| C[n+]1cccc2cc(NC(=O)c3ccc(C(=O)Nc4ccc5c(ccc[n+]5C)c4)cc3)ccc21 | N |
| CC(=O)NC1=C(N2CC2)C(=O)C(NC(C)=O)=C(N2CC2)C1=O | N |
| N=[N+]=CC(=O)OCC(N)C(=O)O (configuration not stated) | N |
| CCCOC1=C(N2CC2)C(=O)C(OCCC)=C(N2CC2)C1=O | N |
| COC12C(COC(N)=O)C3=C(C(=O)C(C)=C(N)C3=O)N1CC1C2N1C (configuration not stated) | N |
| COc1cccc2c1C(=O)c1c(O)c3c(c(O)c1C2=O)C[C@@](O)(C(C)=O)C[C@@H]3OC1CC(N)C(O)C(C)O1 (some centres not stated) | Y |
| O=C(Nc1ccc(C2=NCCN2)cc1)c1ccc(C(=O)Nc2ccc(C3=NCCN3)cc2)cc1 | N |
| S=P(N1CC1)(N1CC1)N1CC1 | Y |
| C[n+]1c2ccccc2nc2c(N)cc(N)cc21 | N |
| CN=C(NC)c1ccc(NC(=O)Nc2ccc(NC(=O)Nc3ccc(C(=NC)NC)cc3)cc2)cc1 | N |
| C=CC(O)CN1CC1 (configuration not stated) | N |
| NC(=O)N(CCCl)N=O | Y |
| COCCCN=C(N)c1ccc(NC(=O)c2ccc(C(=O)Nc3ccc(C(N)=NCCCOC)cc3)cc2)cc1 | Y |
| CO[C@@]12[C@H](COC(N)=O)C3=C(C(=O)C(C)=C(N)C3=O)N1C[C@@H]1N[C@@H]12 | N |
| CCCC(=O)NC1=C(N2CC2)C(=O)C(NC(=O)CCC)=C(N2CC2)C1=O | Y |
